Mitogen-activated protein kinase kinase kinase kinase 1 (Homo sapiens, UniProt Q92918): recorded Kd for assorted compounds; also: in the data inactive means no Kd found up to 30 µM
Sequence (Q92918 whole entry): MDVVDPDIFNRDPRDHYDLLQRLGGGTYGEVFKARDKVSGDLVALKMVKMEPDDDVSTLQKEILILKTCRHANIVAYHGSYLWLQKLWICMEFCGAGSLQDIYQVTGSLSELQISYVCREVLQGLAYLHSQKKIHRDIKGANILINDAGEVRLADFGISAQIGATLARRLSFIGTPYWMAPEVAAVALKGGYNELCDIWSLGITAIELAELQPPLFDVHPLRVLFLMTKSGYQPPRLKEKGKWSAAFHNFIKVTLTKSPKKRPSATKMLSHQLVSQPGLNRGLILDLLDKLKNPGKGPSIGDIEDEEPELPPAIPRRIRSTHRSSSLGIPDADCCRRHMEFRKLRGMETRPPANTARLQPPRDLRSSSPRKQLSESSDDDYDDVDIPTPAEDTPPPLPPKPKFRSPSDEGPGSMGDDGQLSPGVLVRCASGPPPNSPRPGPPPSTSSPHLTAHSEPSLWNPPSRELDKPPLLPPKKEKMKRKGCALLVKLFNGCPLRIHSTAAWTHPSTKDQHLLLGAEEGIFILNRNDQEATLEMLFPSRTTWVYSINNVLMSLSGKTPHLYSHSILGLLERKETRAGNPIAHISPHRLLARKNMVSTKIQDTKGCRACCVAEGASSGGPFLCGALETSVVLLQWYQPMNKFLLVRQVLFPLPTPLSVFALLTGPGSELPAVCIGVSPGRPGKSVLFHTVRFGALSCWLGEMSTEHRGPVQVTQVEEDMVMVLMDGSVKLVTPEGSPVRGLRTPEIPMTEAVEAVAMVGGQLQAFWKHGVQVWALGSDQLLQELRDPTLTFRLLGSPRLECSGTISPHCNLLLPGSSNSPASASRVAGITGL
Activity calls are given as the source filed them.

smiles	attribute-measured	result
CNC(=O)c1cccc2cc(Oc3ccnc4cc(OCC5(N)CC5)c(OC)cc34)ccc12	Kd	> 30 µM (inactive)
COc1ccc(S(=O)(=O)N(C(C)=O)c2ccccc2/C=C/c2cc[n+]([O-])cc2)cc1	Kd	> 30 µM (inactive)

Incoming: Could you share which Kd value was measured for CN1C/C=C/CCOc2cccc(c2)-c2ccnc(n2)Nc2cccc(c2)C1 ?
Outgoing: > 30 µM (inactive)

###

Calls of active or inactive are those of the source.
For reference, Kd measured on UniProt Q07002:

Use these answered entries as a reference point.
smiles	result
Cc1nc(Nc2n[nH]c3c2CN(C(=O)N[C@H](CN(C)C)c2ccccc2)C3(C)C)c2sccc2n1	0.067 µM (active)
CN(C[C@@H]1COCCO1)S(=O)(=O)Nc1ccc2ccc3ncc(-c4cnn(C)c4)cc3c(=O)c2c1	> 30 µM (inactive)

# ---- query compound ----
Incoming: Returns the measured Kd for the input compound. Input: COc1c(OCCCN2CCOCC2)ccc2c1N=C(NC(=O)c1cnc(N)nc1)N1CCN=C21
Outgoing: > 30 µM (inactive)
